- assay.name: Probe fluorescence ratio response to linolenic acid relative to ADIFAB2
- Format: binding
- condition.notes: response relative to ADIFAB2
Known DR/DR LNA of a selection of molecules
Form rule: numeric answer, no unit written next to it.

[
  {
    "molecule": "126E, 72A (protein, listed as Rattus norvegicus, PEPTIDE (1)...(131) wild-type rat intestinal fatty acid binding protein) AFDGTWKVDRNENYEKFMEKMGINVVKRKLGAHDNLKLTITQEGNKFTVKESSNFRNIDVVFELGVDFAYSAADGTELTGTWTMEGNKLVGKFKRVDNGKELIAVREISGNELIQTYTYEGVEAKEIFKKE",
    "data.value": 0.32
  },
  {
    "molecule": "72V 73W 74N (protein, listed as Rattus norvegicus, PEPTIDE (1)...(131) wild-type rat intestinal fatty acid binding protein) AFDGTWKVDRNENYEKFMEKMGINVVKRKLGAHDNLKLTITQEGNKFTVKESSNFRNIDVVFELGVDFAYSVWNGTELTGTWTMEGNKLVGKFKRVDNGKELIAVREISGNELIQTYTYEGVEAKRIFKKE",
    "data.value": 2.384
  }
]

Query: # input molecule: 31Y1, 72A (protein, listed as Rattus norvegicus, PEPTIDE (1)...(131) wild-type rat intestinal fatty acid binding protein) AFDGTWKVDRNENYEKFMEKMGINVVKRKLYAHDNLKLTITQEGNKFTVKESSNFRNIDVVFELGVDFAYSAADGTELTGTWTMEGNKLVGKFKRVDNGKELIAVREISGNELIQTYTYEGVEAKRIFKKE ; wanted: its DR/DR LNA
Reply: 1.61
